System: Ras processing in COS cells
Experiment: Cell-based assay: COS cells, inhibition of Ras processing
quantity-measured: pIC50
Give bare numbers, as −log10 of the molar value.

Below, 2 compounds whose answers are already recorded.
chemical-string: COC(=O)[C@H](CO)NC(=O)N1CCC(CC(=O)N2CCC([C@H]3c4ncc(Br)cc4CCc4cc(Cl)cc(Br)c43)CC2)CC1
pIC50: 6.96
--
chemical-string: O=C(CC1CCN(C(=O)Nc2ccccc2)CC1)N1CCC([C@H]2c3ncc(Br)cc3CCc3cc(Cl)cc(Br)c32)CC1
pIC50: 7.48

Continue with the compound presented below.
Q. Return reported pIC50; argument: `CCOC(=O)N1CCC(NC(=O)N2CCC(CC(=O)N3CCC([C@H]4c5ncc(Br)cc5CCc5cc(Cl)cc(Br)c54)CC3)CC2)CC1`
A. 7.70

----------
Tested on: Ras processing in COS cells
Test: Cell-based assay: COS cells, inhibition of Ras processing
Give IC50 for every item shown.
One number for each entry, in nM.

Below, 2 compounds whose answers are already recorded.
compound: CNC(=O)N1CCC(CC(=O)N2CCN(C3c4ccc(Cl)cc4CCc4cc(Br)cnc43)CC2)CC1 (centres unmarked) [Example 14]
target-under-test: Ras processing in COS cells
measurement-unit: nM
IC50: 750
//
compound: O=C(CC1CCN(C(=O)N(CCO)CCO)CC1)N1CCC([C@H]2c3ncc(Br)cc3CCc3cc(Cl)cc(Br)c32)CC1 [Example 7]
target-under-test: Ras processing in COS cells
measurement-unit: nM
IC50: 18

Consider the following items and state reported IC50 for each.
1. COC(=O)[C@H](COC(C)(C)C)NC(=O)N1CCC(CC(=O)N2CCC([C@H]3c4ncc(Br)cc4CCc4cc(Cl)cc(Br)c43)CC2)CC1 [Example 8]
2. O=C(CC1CCN(C(=O)NCCO)CC1)N1CCC([C@H]2c3ncc(Br)cc3CCc3cc(Cl)cc(Br)c32)CC1 [Example 11]
3. NC(=O)[C@H](CO)NC(=O)N1CCC(CC(=O)N2CCC([C@H]3c4ncc(Br)cc4CCc4cc(Cl)cc(Br)c43)CC2)CC1 [Example 10]
4. CCCNC(=O)N1CCC(CC(=O)N2CCN(C3c4ccc(Cl)cc4CCc4cc(Br)cnc43)CC2)CC1 (centres unmarked) [Example 15]
5. COc1ccccc1NC(=O)N1CCC(CC(=O)N2CCC([C@H]3c4ncc(Br)cc4CCc4cc(Cl)cc(Br)c43)CC2)CC1 [Example 1]

A.
1. 120
2. 18
3. 300
4. 1500
5. 50

Q. Return reported IC50; argument: NC(=O)CNC(=O)N1CCC(CC(=O)N2CCC([C@H]3c4ncc(Br)cc4CCc4cc(Cl)cc(Br)c43)CC2)CC1 [Example 13]
A. 25

----------
Give IC50 for every item shown.
Molecular target: partially purified rat brain farnesyl protein transferase (FPT) (Rattus norvegicus, UniProt Q02293+Q04631)
Construct: partially purified rat brain farnesyl protein transferase (FPT)
Assay: In vitro enzyme assay: inhibition of Ras-CVLS farnesylation by FPT
Give me the value, and tack the unit on after it.

Below, 5 molecules whose answers are already recorded.
molecule: COC(=O)[C@H](CO)NC(=O)N1CCC(CC(=O)N2CCC([C@H]3c4ncc(Br)cc4CCc4cc(Cl)cc(Br)c43)CC2)CC1 [Example 9]
recorded-measurement: 3.3 nM

molecule: CC(C)(C)NC(=O)N1CCC(CC(=O)N2CCN(C3c4ccc(Cl)cc4CCc4cc(Br)cnc43)CC2)CC1 (stereo not drawn) [Example 16]
recorded-measurement: 108 nM

molecule: CNC(=O)N1CCC(CC(=O)N2CCN(C3c4ccc(Cl)cc4CCc4cc(Br)cnc43)CC2)CC1 (stereo not drawn) [Example 14]
recorded-measurement: 50 nM

molecule: O=C(CC1CCN(C(=O)NCCO)CC1)N1CCC([C@H]2c3ncc(Br)cc3CCc3cc(Cl)cc(Br)c32)CC1 [Example 11]
recorded-measurement: 3.1 nM

molecule: COc1ccccc1NC(=O)N1CCC(CC(=O)N2CCC([C@H]3c4ncc(Br)cc4CCc4cc(Cl)cc(Br)c43)CC2)CC1 [Example 1]
recorded-measurement: 5.1 nM

Consider the following items and state reported IC50 for each.
1. COC(=O)[C@H](COC(C)(C)C)NC(=O)N1CCC(CC(=O)N2CCC([C@H]3c4ncc(Br)cc4CCc4cc(Cl)cc(Br)c43)CC2)CC1 [Example 8]
2. NC(=O)CNC(=O)N1CCC(CC(=O)N2CCC([C@H]3c4ncc(Br)cc4CCc4cc(Cl)cc(Br)c43)CC2)CC1 [Example 13]
3. CCCNC(=O)N1CCC(CC(=O)N2CCN(C3c4ccc(Cl)cc4CCc4cc(Br)cnc43)CC2)CC1 (stereo not drawn) [Example 15]
4. O=C(CC1CCN(C(=O)N(CCO)CCO)CC1)N1CCC([C@H]2c3ncc(Br)cc3CCc3cc(Cl)cc(Br)c32)CC1 [Example 7]
5. NC(=O)[C@H](CO)NC(=O)N1CCC(CC(=O)N2CCC([C@H]3c4ncc(Br)cc4CCc4cc(Cl)cc(Br)c43)CC2)CC1 [Example 10]
6. CCOC(=O)N1CCC(NC(=O)N2CCC(CC(=O)N3CCC([C@H]4c5ncc(Br)cc5CCc5cc(Cl)cc(Br)c54)CC3)CC2)CC1 [Example 6]
7. O=C(O)CNC(=O)N1CCC(CC(=O)N2CCC([C@H]3c4ncc(Br)cc4CCc4cc(Cl)cc(Br)c43)CC2)CC1 [Example 12]

A.
["8.7 nM", "0.9 nM", "100 nM", "3.8 nM", "4.6 nM", "1.7 nM", "0.8 nM"]

Consider the following items and state reported IC50 for each.
1. CNC(=O)N1CCC(CC(=O)N2CCC([C@H]3c4ncc(Br)cc4CCc4cc(Cl)cc(Br)c43)CC2)CC1 [Example 3]
2. O=C(CC1CCN(C(=O)Nc2ccccc2)CC1)N1CCC([C@H]2c3ncc(Br)cc3CCc3cc(Cl)cc(Br)c32)CC1 [Example 2]
3. CCOC(=O)CNC(=O)N1CCC(CC(=O)N2CCC([C@H]3c4ncc(Br)cc4CCc4cc(Cl)cc(Br)c43)CC2)CC1 [Example 4]

A.
1: 1.9 nM; 2: 5.4 nM; 3: 2 nM
